assay: binders of probe aHhip on microarray, primary screen, stem cell growth factor project, biochemical, small-molecule microarray, fluorescence 635/667 (AID 1087); conditions: higher = more signal;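 note: score merges spot fluorescence at 667nm with spot signal to noise ratio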
Listing of recorded composite z-score by entry.
endpoint-label: composite z-score

| query-smiles | numeric-readout |
| --- | --- |
| O=C1O[C@H](c2ccccc2)[C@H](c2ccccc2)N2[C@H]1[C@@H](C(=O)NC[C@H](O)c1ccccc1)[C@]1(C(=O)Nc3ccc(C#CC4(O)CCCCCC4)cc31)[C@H]2c1ccc(O)cc1 | 0.131 |
| CC(C)NC(=O)[C@@H]1c2ccccc2C(=O)N(Cc2cc(F)cc(C(F)(F)F)c2)[C@H]1c1ccc(CO)cc1 | -0.149 |
| COc1ccc([Si](C)(C)[C@H]2[C@H](CC(=O)N(CCO)Cc3ccccc3)O[C@@]3(C(=O)N(Cc4cccc(N5C(=O)COc6ccccc65)c4)c4ccccc43)[C@@H]2C)cc1 | 0.245 |
| Cc1ccc(S[C@]2(C(=O)NC3CC3)CC(=O)N(Cc3ccccc3C(F)(F)F)[C@@H]2c2ccc(CO)cc2I)cc1 | 0.219 |
| COc1ccc([Si](C)(C)[C@@H]2[C@@H](CC(=O)N3CCC[C@H]3CO)O[C@]3(C(=O)N(Cc4ccc(N5CCC5=O)cc4)c4ccccc43)[C@H]2C)cc1 | 0.245 |
| C[N+](C)(C)CCCC[C@@H]1NC(=O)[C@@H]2C[C@H](C(=O)NCCCCCNC(=O)CS)[C@H](c3ccc(O)cc3)N2C1=O | 0.0274 |
| O=C1c2ccccc2[C@@]2(Cc3ccccc3N(CC(F)(F)F)C2=O)[C@H](c2ccc(CO)cc2)N1Cc1ccccc1C(F)(F)F | -0.191 |
| CC(C)(C)OC(=O)CC[C@@]12N=C(c3ccc(OCCCO)cc3)O[C@@H]1c1ccccc1N(Cc1ccccc1)C2=O | -0.0645 |
| COC(=O)C(CC#Cc1ccc2c(c1)[C@]1(C(=O)N2)[C@H](c2ccccc2OCCO)N2[C@H](c3ccccc3)[C@H](c3ccccc3)OC(=O)[C@H]2[C@@H]1C(=O)N1CCCCCCC1)C(=O)OC | 2.52 |
| CC(C)C(=C=CC[C@@H](O)c1ccc(CO)o1)CCO | 0.065 |
| C=C(COC)C(=O)CC[C@@H](OC(=O)c1ccccc1-c1ccccc1C(=O)O)c1cccc(OCCO)c1 | -0.0645 |
| C=CCNC(=O)[C@@H]1[C@H]2C(=O)O[C@H](c3ccccc3)[C@H](c3ccccc3)N2[C@H](c2ccc(O)cc2)[C@@]12C(=O)Nc1ccccc12 | -0.251 |
| COCCOC(=O)N1C(=O)[C@@]2(c3cc(C#CCNC(N)=O)ccc31)[C@H](C(=O)NC[C@H](O)c1ccccc1)[C@H]1C(=O)O[C@H](c3ccccc3)[C@H](c3ccccc3)N1[C@@H]2c1ccc(O)cc1 | -0.191 |
| COc1ccc(/C=C/C(=O)c2cccc(OCC(=O)OC(C)(C)C)c2)cc1 | -0.226 |
